experimental.target: γ-secretase (Homo sapiens)
Construct: endogenous in cells; host or cells: SKNBE2 human neuroblastoma cells (carrying hAPP 695 wild type as substrate)
assay.name: Screening for γ-secretase-modulating activity: Aβ42 in supernatant of SKNBE2 cells carrying hAPP 695 wild type (Alphalisa)
Assay type: cell-based
measurement.setup: SKNBE2 human neuroblastoma cells carrying hAPP 695 wild type, overnight incubation, Aβ42 in cell supernatant
Protocol: Screening was carried out using SKNBE2 human neuroblastoma cells carrying the hAPP 695—wild type, grown in Dulbecco's Modified Eagle's Medium/Nutrient mixture F-12 (DMEM/NUT-mix F-12) (HAM) provided by Invitrogen (cat no. 10371-029) containing 5% Serum/Fe supplemented with 1% non-essential amino acids, 1-glutamine 2 mM, Hepes 15 mM, penicillin 50 U/ml (units/ml) en streptomycin 50 μg/ml. Cells were grown to near confluency. […]
pIC50 reference
The quantity pIC50 is defined as the negative base-10 logarithm of the molar concentration.

Recorded results for 6 compounds are shown here.
compound | readout.name | reading
Cc1cn(-c2ccc3n(c2=O)C[C@@H](C)N(Cc2cc(Br)cc(OC(F)(F)F)c2)C3=O)cn1 | pIC50 | 7.15
Cc1cn(-c2ccc3n(c2=O)CCN(C2CCCc4c2cccc4C(F)(F)F)C3=O)cn1 (centres unmarked) | pIC50 | 5.61
Cc1cn(-c2ccc3n(c2=O)C[C@@H](C)N(C(C)c2cc(CC4CC4)cc(C(F)(F)F)c2)C3=O)cn1 (single isomer, unassigned) [compound 136] | pIC50 | 7.40
Cc1cn(-c2ccc3n(c2=O)CC(C)N(Cc2cc(C(F)(F)F)cc(C(F)(F)F)c2)C3=O)cn1 (centres unmarked) | pIC50 | 7.00
Cc1cn(-c2ccc3n(c2=O)CCN(C(C)Cc2cc(C(F)(F)F)cc(C(F)(F)F)c2)C3=O)cn1 (centres unmarked) | pIC50 | 6.60
CCn1cc(C(C)N2C(=O)c3ccc(-n4cnc(C)c4)c(=O)n3CC2C)c2cc(Cl)c(F)cc21 (single isomer, unassigned) [compound 192] | pIC50 | 8.00

Return pIC50 for the following compound: Cc1cn(-c2ccc3n(c2=O)CCN(C2CCc4c2cccc4C(F)(F)F)C3=O)cn1 (centres unmarked)
5.55

Please supply the value of reported pIC50 for the item Cc1cn(-c2ccc3n(c2=O)C[C@@H](C)N(Cc2cn(C)c4cc(C(F)(F)F)ccc24)C3=O)cn1
7.30
